# Lookup of reported protein stability index keyed by entry
assay: protein stability index of a GFP-peptide fusion (GPS, HEK-293T) (PSI 1-6); higher = more stable; settings: treatment: MLN4924 1 uM, 8 h; c terminus: a fixed tail appended;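 further: 24-mer peptide tiles fused after GFP, lentivirally expressed, FACS-sorted into six equal bins by GFP/DsRed ratio, decoded by Illumina sequencing, PSI is the read-weighted mean bin number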

Reference set (5 entries):
{"seqText": "SYYIIQHKPKNSEELYKEIDGVAT [PTPRD]", "endpointResult": 3.18}
{"seqText": "FCVALSDYDLVLAEDEEMNRMHES [GNAI1]", "endpointResult": 3.43}
{"seqText": "NVPVDDSLVKELLRMCSHGEGKIN [EFHC1]", "endpointResult": 3.55}
{"seqText": "PEPPAAVDFLEPDSGTCPEVDEEG [FCHO1]", "endpointResult": 5.54}
{"seqText": "SDDHIRVIVQLHKLRHLDISRDRL [ZER1]", "endpointResult": 2.53}

Prompt: Given the entry FSFSMKGHEKTAKSKTRSLLKRME [DLC1] , report its measured protein stability index.
Response: 3.06

====

# Lookup of reported protein stability index keyed by entry
experiment: protein stability index of a GFP-peptide fusion (GPS, HEK-293T) (PSI 1-6); higher = more stable; conditions: treatment: MLN4924 1 uM, 8 h; c terminus: a fixed tail appended
Lab note: record the figure alone, no unit after it.

Reference set (3 entries):
{"seqText": "YVFYLAVGNYRLKEYEKALKYVRG [FIS1]", "measureName": "protein stability index", "endpointResult": 2.39}
{"seqText": "RSCTPNAEVRHEIQDGTIHLYIYS [KMT2E]", "measureName": "protein stability index", "endpointResult": 2.57}
{"seqText": "WYFWGETFQNSVFVATFLRYAVVL [SCD]", "measureName": "protein stability index", "endpointResult": 3.36}

Prompt: Given the entry EFEAVVRQAELAIERCIFPERIYQ [PI4K2A] , report its measured protein stability index.
Response: 2.33

Prompt: // same read-out, input: LTINPAKRITAHEALKHPWVCQRS [CAMK2B]
Response: 2.95

Prompt: // same read-out, input: LVGNKSDLRHLRAVPTDEARAFAE [RAB11A]
Response: 4.39

Prompt: // same read-out, input: HLNGHAMCQTKHSPWADGTPCGPA [ADAMTS4]
Response: 3.11

Prompt: // same read-out, input: ALLFTGIAVLGIVMLKRIHSLYRR [SCAMP3]
Response: 1.96

Prompt: // same read-out, input: GPSTPSPVAAQFTSEGTTLSGVDL [FCHO1]
Response: 4.96

Prompt: // same read-out, input: TEKQNFLLFDMTTHPVTNTTEKQR [GOLPH3L]
Response: 4.4

Prompt: // same read-out, input: RDAAGKPQRPRSAPRTSSCAERLQ [FCHO1]
Response: 4.68

====

assay: protein stability index of a GFP-peptide fusion (GPS, HEK-293T) (PSI 1-6); higher = more stable; conditions: treatment: MLN4924 1 uM, 8 h; c terminus: a fixed tail appended
# Lookup of reported protein stability index keyed by entry
Lab note: record the figure alone, no unit after it.

Reference set (2 entries):
{"seqText": "PKDIMTNTHAKSILNSMNSLRKSN [KLHL12]", "endpointResult": 3.73}
{"seqText": "KETDPLTFNFISSLKAICTEIANC [PLD5]", "endpointResult": 2.05}

Consider now this further sequence.
Prompt: Given the entry FEPRLLVQSIELQRPRFITSGGSN [VPS39] , report its measured protein stability index.
Response: 2.9
